FYI, the data here is from PubChem BioAssay (NCI).

System: SN12C renal
test description: NCI tumour cell line growth inhibition, 48 h; in the data active = GI50 below about 0.43 µM; inactive = the rest
Classes used: Yes for active, No for inactive

[[record]]
molecule = "Cc1ccc2cnc(N)c(C#Cc3cc(C(=O)Nc4ccc(CN5CCN(C)CC5)c(C(F)(F)F)c4)cnc3C)c2c1"
target_entity = "SN12C renal"
label_value = "Yes"

[[record]]
molecule = "Clc1ccc(-c2cn3ccnc3c(-c3ccc(Cl)cc3)n2)cc1"
target_entity = "SN12C renal"
label_value = "No"

[[record]]
molecule = "Oc1cccc(Nc2nc3ccccc3c3occc23)c1"
target_entity = "SN12C renal"
label_value = "No"

[[record]]
molecule = "O=C1OCC2=C1C(c1cccc(F)c1)c1cc3c(cc1N2CCO)OCO3 (configuration not stated)"
target_entity = "SN12C renal"
label_value = "No"

[[record]]
molecule = "C/C(=N/O)c1cccc(Nc2cc(-n3nnc4ccccc43)nc3ccccc23)c1"
target_entity = "SN12C renal"
label_value = "No"

[[record]]
molecule = "CN1CCC(CNc2cc(C3(C(=O)Nc4cc(C(=O)Nc5ccc(Cl)c(C(F)(F)F)c5)ccc4F)CC3)ncn2)CC1"
target_entity = "SN12C renal"
label_value = "No"

[[record]]
molecule = "CC[O-].CC[O-].O=C([CH-]C(=O)c1ccccc1)CCCCCCCCC(=O)[CH-]C(=O)c1ccccc1.[Ti+4]"
target_entity = "SN12C renal"
label_value = "No"

[[record]]
molecule = "COc1cccc(-c2nc3cc(NC(=O)c4ccc(Cl)c(C#N)c4)ccc3o2)c1"
target_entity = "SN12C renal"
label_value = "No"

[[record]]
molecule = "Nc1nc2ccc(-c3nc4ccc5[nH]ncc5c4c4c3CCC4)cc2s1"
target_entity = "SN12C renal"
label_value = "Yes"

[[record]]
molecule = "CC(CO)Nc1cc(-c2[nH]c3cccnc3c2-c2ccc(F)cc2)ccn1 (configuration not stated)"
target_entity = "SN12C renal"
label_value = "No"

[[record]]
molecule = "c1cc[c]([Sn][c]2ccccc2)cc1"
target_entity = "SN12C renal"
label_value = "No"

[[record]]
molecule = "CCOC(=O)Oc1c(OC)cc(C(=O)c2ccc(OC)c(O)c2OC)cc1OC"
target_entity = "SN12C renal"
label_value = "No"

[[record]]
molecule = "CCc1c2c(nc3ccc(OCc4ccc(B(O)O)cc4)cc13)-c1cc3c(c(=O)n1C2)COC(=O)[C@]3(O)CC"
target_entity = "SN12C renal"
label_value = "Yes"

[[record]]
molecule = "O=C(NCC1CC1)c1ccc(-c2cccc(C(=O)NC3CC3)c2)cc1"
target_entity = "SN12C renal"
label_value = "No"

[[record]]
molecule = "O=S(=O)(/N=c1\\scc(-c2ccccc2)n1-c1ccccc1)c1ccc(N2N=C3c4ccccc4CC3C2c2ccc(Cl)cc2)cc1 (configuration not stated)"
target_entity = "SN12C renal"
label_value = "No"

[[record]]
molecule = "COc1cc(/C=C/C(=O)/C=C/c2cc(OC)c3c(c2)OCO3)cc2c1OCO2"
target_entity = "SN12C renal"
label_value = "No"

[[record]]
molecule = "CCN1C(=O)N(CC)C2C1NN=c1s/c(=C\\c3ccc(Cl)cc3Cl)c(=O)n12 (configuration not stated)"
target_entity = "SN12C renal"
label_value = "Yes"


###

Tested on: MOLT-4 leukemia
test description: NCI tumour cell line growth inhibition, 48 h
GI50: recorded values
measurement label: GI50

[[record]]
compound = "O=C1/C(=C/c2ccc([N+](=O)[O-])cc2)CN(C(=O)CCN2CCC(=NO)CC2)C/C1=C\\c1ccc([N+](=O)[O-])cc1"
result = "409 nM"

[[record]]
compound = "COc1cc(C)ccc1C(=O)c1ccc(C)cc1OC"
result = "7660 nM"

[[record]]
compound = "O=C(c1ccc2ccccc2c1)c1c(C(F)(F)F)n([O-])c2ccc(C(F)(F)F)cc2[n+]1=O"
result = "441 nM"

[[record]]
compound = "O=S(=O)(Nc1ccc(Br)cc1)c1ccc(-c2cnc(C3CC3)o2)cc1"
result = "2160 nM"

[[record]]
compound = "CC1CC(C)CC(C)C(O)/C(C#N)=C/C=C/CC(C2CCCC2C(=O)O)OC(=O)CC(O)C(C)C1 (stereo not given)"
result = "26.9 nM"


###

Tested on: KM12 colon
test description: NCI tumour cell line growth inhibition, 48 h
Consider the following compounds and their measured TGI readings.
measurement label: TGI

[[record]]
compound = "O=c1[nH]c(Nc2ccccc2)nc2c1ncn2CC(O)CSCCO (stereo unspecified)"
measurement_label = "TGI"
result = "> 100 µM"

[[record]]
compound = "C#CCNC(CSSCC(N)C(=O)O)C(=O)O (stereo unspecified)"
measurement_label = "TGI"
result = "> 100 µM"

[[record]]
compound = "CCc1n[nH]c(=O)n1CCCCCCCCCCCCn1c(CC)n[nH]c1=O"
measurement_label = "TGI"
result = "> 100 µM"

[[record]]
compound = "CO/N=C(\\COc1ccc2c(c1)[nH]c1ccccc12)c1ccc(OC)cc1"
measurement_label = "TGI"
result = "> 100 µM"

[[record]]
compound = "C[C@@]1(O)C2CC3CC1(c1ccccc1)CC(/C3=N/O)/C2=N\\O (stereo partly specified)"
measurement_label = "TGI"
result = "> 100 µM"

[[record]]
compound = "CCOC(=O)Cc1nc2ccc3c(c2[nH]c1=O)C(=O)c1ccccc1C3=O"
measurement_label = "TGI"
result = "> 100 µM"

[[record]]
compound = "c1ccc(-c2nc(-c3ccccn3)nc(-c3ccccn3)n2)nc1"
measurement_label = "TGI"
result = "> 100 µM"

[[record]]
compound = "COC(=O)C1(NC(=O)C(CC(=O)OCc2ccccc2)NC(=O)OCc2ccccc2)CCCCCC1 (stereo unspecified)"
measurement_label = "TGI"
result = "> 100 µM"

[[record]]
compound = "C[N+](C)(C)CCC(=O)CC[N+](C)(C)C"
measurement_label = "TGI"
result = "42.2 µM"

[[record]]
compound = "COc1cc2c(c3c1c(=O)c1ccccc1n3C)C=CC1(CCCC1)O2"
measurement_label = "TGI"
result = "25.3 µM"

[[record]]
compound = "CC(C)=CCN1c2ccccc2NC(=O)CC1C (stereo unspecified)"
measurement_label = "TGI"
result = "> 100 µM"


###

Tested on: SF-268 CNS
test description: NCI tumour cell line growth inhibition, 48 h
Listed below: TGI values for each entry.
measurement label: TGI (µM)

[[record]]
molecule = "CCC/C(Cl)=N\\OC(=O)Nc1ccc(F)cc1"
target_entity = "SF-268 CNS"
measurement_label = "TGI"
modifier = ">"
recorded_number = 65

[[record]]
molecule = "Nc1n(CC(=O)c2ccccc2)nc2sc(-c3ccccc3)n[n+]12"
target_entity = "SF-268 CNS"
measurement_label = "TGI"
modifier = "="
recorded_number = 62.5

[[record]]
molecule = "O=C1C2C3C=C4c5ccccc5N(c5ccccc5)C4(C2C(=O)N1c1ccccc1)C1C(=O)N(c2ccccc2)C(=O)C31 (stereo not given)"
target_entity = "SF-268 CNS"
measurement_label = "TGI"
modifier = ">"
recorded_number = 100

[[record]]
molecule = "Cc1ccc(C)c(NC(=O)C(=O)C(C(=O)c2ccc3ccccc3c2)C2OC(=O)c3ccccc32)c1 (stereo not given)"
target_entity = "SF-268 CNS"
measurement_label = "TGI"
modifier = "="
recorded_number = 23.2

[[record]]
molecule = "COc1ccc2c(c1)C(=O)CC1c3cnccc3C(=O)N21 (stereo not given)"
target_entity = "SF-268 CNS"
measurement_label = "TGI"
modifier = ">"
recorded_number = 100


###

Entries annotated with measured TGI
Tested on: CAKI-1 renal
test description: NCI tumour cell line growth inhibition, 48 h
measurement label: TGI

[[record]]
compound = "CC(N=NNc1ccc(-c2nc3ccccc3[nH]2)cc1)C(=O)O (stereo unspecified)"
result = "> 100 µM"

[[record]]
compound = "O=C1C2C3C=C4c5ccccc5N(c5ccccc5)C4(C2C(=O)N1c1ccccc1)C1C(=O)N(c2ccccc2)C(=O)C31 (stereo unspecified)"
result = "> 100 µM"

[[record]]
compound = "CCSC1=NC2C(N(CC)C(=O)N2CC)N1/N=C/C=C/c1ccccc1[N+](=O)[O-] (stereo unspecified)"
result = "> 100 µM"

[[record]]
compound = "Nc1ncn([C@@H]2S[C@H](CO)[C@@H](O)[C@@H]2F)c(=O)n1"
result = "> 100 µM"

[[record]]
compound = "Cn1c(=O)c2c(nc3n(CC(O)CCl)c(=O)ccn23)n(C)c1=O (stereo unspecified)"
result = "66.2 µM"

[[record]]
compound = "COc1ccc(C2=Nn3c(nnc3-c3cc(Cl)cc(Cl)c3Cl)SC2)cc1"
result = "> 49.7 µM"

[[record]]
compound = "O=[N+]([O-])c1ccccc1OCCOc1ccccc1[N+](=O)[O-]"
result = "> 100 µM"

[[record]]
compound = "COc1ccc2c(c1)C(=O)CC1c3cnccc3C(=O)N21 (stereo unspecified)"
result = "> 100 µM"

[[record]]
compound = "COC(=O)C1(NC(=O)C(CC(=O)OCc2ccccc2)NC(=O)OCc2ccccc2)CCCCCC1 (stereo unspecified)"
result = "48.5 µM"

[[record]]
compound = "C=CCc1c(Cl)nc(Cl)nc1Cl"
result = "0.0367 µM"

[[record]]
compound = "CC(=O)c1c(-c2cccc3ccccc23)c(C#N)c(=S)n(C2OC(CO)C(O)C(O)C2O)c1C (stereo unspecified)"
result = "> 100 µM"

[[record]]
compound = "Nc1nc2ccc(-c3nc4ccc5[nH]ncc5c4c4c3CCC4)cc2s1"
result = "5.51 µM"

[[record]]
compound = "COC(=O)C1=C(O)C(C(=O)OC)C2CC(=O)CC1C2(C)C (stereo unspecified)"
result = "> 100 µM"

[[record]]
compound = "N=C1C(O)C2(I)c3ccccc3N3C(=N)C(O)C4c5ccccc5N1C4C32 (stereo unspecified)"
result = "> 100 µM"

[[record]]
compound = "CNC(C)(C)Cc1ccc(Cl)cc1"
result = "> 100 µM"

[[record]]
compound = "Cc1ccc(C)c(NC(=O)C(=O)C(C(=O)c2ccc3ccccc3c2)C2OC(=O)c3ccccc32)c1 (stereo unspecified)"
result = "52.6 µM"

[[record]]
compound = "O=c1[nH]c2nc3ccccc3c(=O)n2/c1=C/c1ccc(Cl)cc1"
result = "> 100 µM"

[[record]]
compound = "C1CSCCCSCCCSCCCSCCCSCCCSCCCSCCCSC1"
result = "> 100 µM"

[[record]]
compound = "N#CN1C2CCC1CC(=O)C2"
result = "> 100 µM"

[[record]]
compound = "CC1=C([Se]CC(OC(=O)CC[Se]c2ccccc2)C(=O)NC(C)(C)C)C(=O)c2ccccc2C1=O (stereo unspecified)"
result = "4.58 µM"

[[record]]
compound = "O=C1[C@H](O)[C@@H]2C(O)O[C@H]3[C@@H]2N1C[C@H]3[Si](c1ccccc1)(c1ccccc1)c1ccccc1 (stereo partly specified)"
result = "> 100 µM"

